# Test system: Raji cells
# Measurement Notes: MTT cell growth inhibition
# Type: cell-based, human
# Run Conditions: 72 hours
pIC50: −log10 of the molar value.
Reported Metric: pIC50

1. C=C1C(=O)[C@]23C[C@H]1CC[C@H]2[C@@]12CO[C@]3(O)[C@@H](O)[C@@H]1C(C)(C)C=CC2=O : < 5.82

###

# Test system: U937 cells
# Measurement Notes: MTT cell growth inhibition
# Format: cell-based, human
# Run Conditions: 72 hours
Reported Metric: IC50 (nM)

1. C=C1C(=O)[C@]23C[C@H]1CC[C@H]2[C@@]12CO[C@]3(O)[C@@H](O)[C@@H]1C(C)(C)C=CC2=O [EriB, Eriocalyxin B] : 1000

###

# Test system: Daudi cells
# Measurement Notes: MTT cell growth inhibition
# Type: cell-based, human
# Run Conditions: 72 hours
pIC50: −log10 of the molar value.
Reported Metric: pIC50

1. C=C1C(=O)[C@]23C[C@H]1CC[C@H]2[C@@]12CO[C@]3(O)[C@@H](O)[C@@H]1C(C)(C)C=CC2=O : < 5.82
